# SYSTEM_UNDER_TEST: T1, TRBP-dsRBD2 (UniProt Q15633-2 139-215)
# T1 sequence: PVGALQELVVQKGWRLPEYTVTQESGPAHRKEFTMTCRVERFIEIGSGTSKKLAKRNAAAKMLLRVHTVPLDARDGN
# EXPERIMENTAL_DETAILS: EMSA; apparent Kd; nH 2.7; 50 mM sodium cacodylate pH 7.0, 50 mM potassium glutamate, 5% glycerol; EMSA 0.5 pM RNA, 30 min at room temperature, gel 0.25X TBE at 10 C; CD at 10 C with 5-15 uM RNA
# ASSAY_CONDITIONS: protein: recombinant; label: 5'-32P; hairpin, 16 bp stem, U4 loop
RECORDED_METRIC: Kd (µM)
Your answer should be a plain number; it is taken to be in µM.

What does the data say about its Kd? Entry: GUCAGCAGUGCCUUAGUUUUCUAAGGCACUGCUGAC (structured_RNA) [ds16-tetra-U]
4

The measured values listed here are drawn from paper PMC4301919.
